The measured values listed here are drawn from ChEMBL document CHEMBL1201862.

Each item that follows carries a reported GI50.
System: CAKI-1
EXPERIMENT: NCI tumour cell line growth inhibition, 48 h
The source made the active and inactive calls. No stated cut-off is given here; in the data, active = GI50 up to about 1.1 µM and inactive = higher.

In the examples that follow, each entry is paired with its recorded GI50.
molecule=Nc1c(C(=O)c2ccccc2)nnc2ccccc12 tested_on=CAKI-1 assay_endpoint=GI50 result="29.5 µM (inactive)"
molecule=OC(c1nc2ccccc2s1)(C(F)(F)F)C(F)(F)F tested_on=CAKI-1 assay_endpoint=GI50 result="> 100 µM (inactive)"
molecule=O=S(=O)(NNc1ccccc1)c1ccccc1 tested_on=CAKI-1 assay_endpoint=GI50 result="1.28 µM (inactive)"
molecule=NC1(c2cc3ccccc3s2)CCCC1 tested_on=CAKI-1 assay_endpoint=GI50 result="> 100 µM (inactive)"
molecule=COc1ccc(N2C(=O)/C(=C/c3ccc(N(CCC#N)CCC#N)cc3)N=C2c2ccccc2)c(OC)c1 tested_on=CAKI-1 assay_endpoint=GI50 result="> 100 µM (inactive)"
molecule=COc1ccc(CNc2nc3ccccc3nc2C(=O)O)cc1OC tested_on=CAKI-1 assay_endpoint=GI50 result="> 100 µM (inactive)"
molecule=CN(CCCNCc1ccccn1)Cc1ccccc1O tested_on=CAKI-1 assay_endpoint=GI50 result="42.8 µM (inactive)"
molecule=O=C(/C=C/c1ccccc1O)C(c1ccccc1)c1ccccc1 tested_on=CAKI-1 assay_endpoint=GI50 result="> 100 µM (inactive)"
molecule=Cc1ccc(C(=O)CC2=Nc3nnc(CCCCCCCc4nnc5n4C(=O)C(CC(=O)c4ccc(C)cc4)=N5)n3C2=O)cc1 tested_on=CAKI-1 assay_endpoint=GI50 result="> 100 µM (inactive)"
molecule=COc1ccc(S(=O)(=O)N/N=C(\C)CN2C(=O)c3ccccc3C2=O)cc1 tested_on=CAKI-1 assay_endpoint=GI50 result="> 100 µM (inactive)"

Looking for the measured GI50 of `C/C(=N\N(C)C)c1sc(-n2nc(-c3ccccc3)cc2-c2ccccc2)nc1C` , can you help?
> 100 µM (inactive)

Looking for the measured GI50 of `CCOC(=O)/C=C\[C@H]1OC(C)(C)O[C@H]1[C@H](O)[C@H]1COC(C)(C)O1` , can you help?
2.57 µM (inactive)

Looking for the measured GI50 of `O=S(=O)(NC1CCCCC1)c1ccc2c(c1)OCCOCCOCCOCCO2` , can you help?
> 100 µM (inactive)

Looking for the measured GI50 of COC(=O)C(Cc1nc2ccccc2nc1O)C(=O)C(=O)Nc1ccc(F)cc1 (stereo not given) , can you help?
> 100 µM (inactive)

Looking for the measured GI50 of `CCN(CC)c1nc(=O)c(C(=O)C(C)(C)C)c(C(C)(C)C)o1` , can you help?
> 100 µM (inactive)

---

System: HT-29
EXPERIMENT: NCI tumour cell line growth inhibition, 48 h
Calls of active or inactive are those of the source. No stated cut-off is given here; in the data, active = GI50 up to about 1.1 µM and inactive = higher.
ASSAY_ENDPOINT: GI50

compound=Oc1cc(-c2ccc(F)cc2)nc2ncccc12 assay_endpoint=GI50 result="42.7 µM (inactive)"
compound=CN(C(=O)c1ccc(Cl)s1)C(=S)N(C)C(=O)c1ccc(Cl)s1 assay_endpoint=GI50 result="> 10 µM (inactive)"
compound=O=C(c1cccc(OCc2ccccc2)c1OCc1ccccc1)N1CCSC1=S assay_endpoint=GI50 result="25.2 µM (inactive)"

Looking for the measured GI50 of `C=C1C(=O)O[C@@H]2C[C@]3(C)[C@@H](C[C@H]12)[C@](C)(O)CC[C@@H]3O` , can you help?
33.3 µM (inactive)

Looking for the measured GI50 of COc1ccc(C2C(Cl)C(=O)N2NC(=O)c2ccc(N)cc2)cc1 (stereo not given) , can you help?
> 100 µM (inactive)
